molecular target: recombinant human LTA4 hydrolase (Homo sapiens, UniProt P09960); test: LTA4 hydrolase homogeneous time resolved fluorescence (HTRF) assay; format: biochemical; settings: inhibition of LTA4 to LTB4 hydrolysis; 18 nM enzyme, 150 nM LTA4, 10 minutes; read-out: Hydrolase IC50
Sequence (P09960 whole entry): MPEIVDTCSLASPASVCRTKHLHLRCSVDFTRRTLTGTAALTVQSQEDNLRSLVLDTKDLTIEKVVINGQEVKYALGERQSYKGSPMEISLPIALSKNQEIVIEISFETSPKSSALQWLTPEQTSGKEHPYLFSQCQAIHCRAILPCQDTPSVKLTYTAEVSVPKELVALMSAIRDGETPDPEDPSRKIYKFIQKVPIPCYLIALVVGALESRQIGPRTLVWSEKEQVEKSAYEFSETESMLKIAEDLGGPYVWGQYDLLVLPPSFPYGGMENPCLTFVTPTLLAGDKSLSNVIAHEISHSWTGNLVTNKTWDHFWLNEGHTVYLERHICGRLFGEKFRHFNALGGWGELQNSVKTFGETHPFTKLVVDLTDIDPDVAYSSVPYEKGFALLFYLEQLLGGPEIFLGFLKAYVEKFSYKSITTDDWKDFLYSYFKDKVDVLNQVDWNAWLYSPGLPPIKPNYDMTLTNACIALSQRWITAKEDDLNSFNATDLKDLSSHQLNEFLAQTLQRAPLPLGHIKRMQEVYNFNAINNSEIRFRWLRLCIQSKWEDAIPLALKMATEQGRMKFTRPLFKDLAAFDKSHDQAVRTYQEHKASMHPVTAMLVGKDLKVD
Please provide measured pIC50 for the entries that follow.
Answers are plain numbers, as −log10 of the molar value.

The following molecules have reported results that may help.
# input Annotate the molecule NC(Cc1ccc(Oc2ccc(Cc3ccccc3)cc2)cc1)C(=O)O (stereo not drawn) with its measured pIC50.
# output 7.08

# input Annotate the molecule CN(CCOc1ccc(Cc2ccccc2)cc1)Cc1ccc(C(=O)O)cc1 with its measured pIC50.
# output 7.68

Continuing:
# input Annotate the molecule NCc1ccc(Oc2ccc(Cc3ccccc3)cc2)cc1 with its measured pIC50.
# output 6.57
